test system: W2; assay: qHTS profiling for inhibitors of Plasmodium falciparum proliferation (AID 504749); also: nearly all actives have a fitted effect of over 60% in size; details: P. falciparum in erythrocytes, SYBR Green DNA, 72 h; series mostly up to 28.7 µM
Records with an inconclusive call do not appear. Calls of active or inactive are those of the source. Calls follow the shape of the dose curve; as a rule, active = well fitted inhibition curve with a large enough effect; inconclusive = small, poorly fitted or top-dose-only effect; inactive = flat fitted curve, though single readings scatter.
Respond with a class label; see active, inactive

INSERT INTO results (molecule, qualitative_label) VALUES
  ('C/C=C\c1ccc(OC)cc1', 'inactive'),
  ('C1OCOCO1', 'inactive'),
  ('O=NCc1ccc([N+](=O)[O-])o1', 'active'),
  ('CO/N=C(/C(=O)N[C@@H]1C(=O)N2C(C(=O)O)=CCS[C@H]12)c1csc(N)n1', 'inactive'),
  ('CC(C)CN(C[C@@H](OP(=O)(O)O)[C@H](Cc1ccccc1)NC(=O)O[C@@H]1CCOC1)S(=O)(=O)c1ccc(N)cc1', 'inactive'),
  ('CN(C)CCCCCCN(C)C', 'inactive');

Request: Please indicate how the test categorized CCC(C)n1ncn(-c2ccc(N3CCN(c4ccc(OCC5COC(Cn6cncn6)(c6ccc(Cl)cc6Cl)O5)cc4)CC3)cc2)c1=O (stereo not drawn) .
Result: active

Request: Please indicate how the test categorized NC1=NC(S)C2N=CN=C2N1 (stereo not drawn) .
Result: inactive

---

target: Rap guanine nucleotide exchange factor 3 (Homo sapiens); assay: Counterscreen qHTS for agonist of cAMP-regulated guanine nucleotide exchange factor 3 (EPAC1) (AID 1645889); details: EPAC1 Rap1B-BODIPY-GDP exchange, fluorescence; series mostly up to 154 µM; also: % of control where 0% means no effect; nearly all actives have a fitted effect of over 40% in size
Inconclusive results are not listed. Active and inactive are the calls of the source. The call rests on the fitted dose curve; in most records, active means well fitted activation curve with a large enough effect; inconclusive means small, poorly fitted or top-dose-only effect, or another doubt; inactive means no such curve, though single readings can be large or run the other way.
RESULT TYPE: activation

Reference set (5 entries):
INSERT INTO results (compound, value_observed) VALUES
  ('COc1ccc(N(CC(=O)NC2CCCCCCC2)S(=O)(=O)c2c(C)nn(C)c2C)cc1', 'inactive'),
  ('COc1cc(/C=C2\SC(=Nc3ccc(Cl)c(C(=O)O)c3)NC2=O)c(Br)c(Br)c1O', '0.17% [at 30.8 µM] (inactive)'),
  ('COc1cccc(S(=O)(=O)Nc2ccc3c(c2)[C@@H]2C[C@@H](CC(=O)NCc4ccc(Cl)cc4)O[C@@H](CO)[C@@H]2O3)c1', 'inactive'),
  ('O=C(NNc1c2ccccc2nc2ccccc12)c1ccccc1O', 'inactive'),
  ('Cc1ccc(-c2cn3nc(-c4ccccc4)c(-c4ccccc4)nc3n2)cc1', 'inactive');

Request: Supply activation value. Item: CSCCC(NS(=O)(=O)c1ccc2c(c1)OCCO2)C(=O)N(C)Cc1ccc(F)cc1 (stereo not given)
Result: 5.06% [at 30.8 µM] (inactive)

Request: Supply activation value. Item: Cc1oc2c(O)c(O)ccc2c(=O)c1-c1cnn(-c2ccccc2)c1
Result: 28.8% [at 30.8 µM] (inactive)

Request: Supply activation value. Item: Cc1cc(C(=O)c2ccc3ccccc3c2)c(C)o1
Result: inactive

Request: Supply activation value. Item: CC(=O)Nc1cccc(C(=O)/C=C/c2ccc(F)cc2)c1
Result: inactive

Request: Supply activation value. Item: O=C1/C(=C/c2ccc(O)c(O)c2)SC(=S)N1Nc1ccccc1
Result: inactive

Request: Supply activation value. Item: CC(C)c1ccc(C2=CC(c3cccc(Cl)c3)n3ncnc3N2)cc1 (stereo not given)
Result: inactive

---

molecular target: Retinoic acid receptor RXR-alpha (Homo sapiens); assay: qHTS assay for small molecule agonists of retinoid X receptor alpha signaling (AID 588544); conditions: HEK293T RXRa-UAS-bla, beta-lactamase reporter, 18 h; series mostly up to 76.7 µM;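 also: 0% = DMSO basal wells and 100% = reference agonist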
Records with an inconclusive call do not appear. Active and inactive are the calls of the source. Calls come from the whole dose curve.
RESULT TYPE: outcome

Reference set (6 entries):
INSERT INTO results (molecule, result_type, value_observed) VALUES
  ('Nc1ccc(Cl)cc1Cl', 'outcome', 'inactive'),
  ('CCO[Si](CCCN)(OCC)OCC', 'outcome', 'inactive'),
  ('C=Cc1ccccc1Cl', 'outcome', 'inactive'),
  ('Clc1cc(Cl)c(Cl)c(Cl)c1Cl', 'outcome', 'inactive'),
  ('O=C(/C=C/c1ccc(O)c(O)c1)O[C@@H](C(=O)O)[C@@H](OC(=O)/C=C/c1ccc(O)c(O)c1)C(=O)O', 'outcome', 'inactive'),
  ('C1OCOCO1', 'outcome', 'inactive');

Request: Report its outcome with Retinoic acid receptor RXR-alpha (Homo sapiens) as the test system: CC1(C)CC(N=C=O)CC(C)(CN=C=O)C1 (stereo unspecified)
Result: inactive

Request: Report its outcome with Retinoic acid receptor RXR-alpha (Homo sapiens) as the test system: CCCCOCCO
Result: inactive

Request: Report its outcome with Retinoic acid receptor RXR-alpha (Homo sapiens) as the test system: COC(=O)CCCCC(=O)OC
Result: inactive

---

Below is a list of entries, each paired with its recorded activity value.
target: Catechol O-methyltransferase (Homo sapiens) (UniProt P21964); assay: Confirmatory Screen for Target Class Profiling of Small Molecule Inhibitors of Methyltransferases (AID 1745852); conditions: MTase-Glo luminescence, SAH detection, recombinant enzyme; measured here: COMT max response; stronger effect = lower value
Sequence (P21964 whole entry, looked up): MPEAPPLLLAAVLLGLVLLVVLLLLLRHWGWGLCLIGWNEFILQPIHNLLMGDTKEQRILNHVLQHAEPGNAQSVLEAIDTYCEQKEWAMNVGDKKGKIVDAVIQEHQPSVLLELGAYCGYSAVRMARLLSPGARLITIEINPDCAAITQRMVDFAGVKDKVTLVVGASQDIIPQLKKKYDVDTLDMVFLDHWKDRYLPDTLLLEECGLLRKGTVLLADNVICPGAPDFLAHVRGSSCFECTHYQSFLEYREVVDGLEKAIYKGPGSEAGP
State just the number; it will be interpreted in %.

INSERT INTO results (compound, value_observed) VALUES
  ('Cn1cc(-c2cc3c(ccn3Cc3ccncc3)c(N3CCOCC3)n2)cn1', -2.2),
  ('Cn1nccc1-c1cc2c(cn1)CN(Cc1ccncc1)CCN2', 1.75),
  ('Cc1ccc(C)c(N2CCN(C(=O)c3ccc4c(=O)[nH]c5c(C(=O)NC(C)C)sc(=S)n5c4c3)CC2)c1', -41.7),
  ('CCOCCCN1C(=O)c2cc3c(OC)ccc(OC)c3n2CC1(C)C(=O)NC1CCCCC1 (stereo unspecified)', -8.08),
  ('CCOc1c(CN(C)C(=O)Cn2cccc(OC)c2=O)cccc1OC', 0.499);

Request: Supply activity value. Item: COc1ncccc1-c1cc2c(ccn2CC2CCN([S+](C)(=O)[O-])CC2)c(N2CCOCC2)n1
Result: -8.55

Request: Supply activity value. Item: C[C@H]1CN(C(=O)Nc2ccc(F)cc2F)C[C@@H]1c1nc(-c2ccccc2)no1
Result: 6.81

Request: Supply activity value. Item: O=C(Nc1ccccc1)c1cnc2c(c1)N(C(=O)Cc1ccc(O)cc1)CCC2
Result: -2.13

Request: Supply activity value. Item: O=C(c1ccc(C2CCCNC2)cc1)N1CCN(c2ccncc2)CC1 (stereo unspecified)
Result: 3.41

Request: Supply activity value. Item: COc1ccc(OC)c2c1cc1n2CC(C)(C(=O)NC2CCCCC2)N(Cc2cccnc2)C1=O (stereo unspecified)
Result: -8.96

Request: Supply activity value. Item: COc1cccc([S+](=O)([O-])N2CCC3(C2)N=C(c2cccnc2)C(=O)N3)c1 (stereo unspecified)
Result: -6.05

Request: Supply activity value. Item: Cc1ccc(C(=O)O)c2c1N[C@@H](c1ccc(Cl)cc1)[C@H]1CC=C[C@@H]21
Result: 2.12

Request: Supply activity value. Item: CCCn1c(C)cnc1CC1CCN(C(=O)NCc2ccc(OC)cc2)C1 (stereo unspecified)
Result: -4.22

Request: Supply activity value. Item: COc1ccc(OCc2cc(C(=O)NC(CO)C(C)C)no2)c2ccccc12 (stereo unspecified)
Result: 3.87

Request: Supply activity value. Item: O=C1c2ccccc2C(=O)c2cc(S(=O)(=O)NCCO)ccc21
Result: -11

Request: Supply activity value. Item: COc1ccc(CCNC(=O)c2ccc3c(=O)nc4c(-c5ccccc5)n[nH]n4c3c2)cc1OC
Result: -11.8

Request: Supply activity value. Item: Cc1noc2c(NC3CCN(C)CC3)cc(-c3cccs3)nc12
Result: 7.59

Request: Supply activity value. Item: CC(NC(=O)c1ccc2c(=O)nc3c(-c4cccc(F)c4)n[nH]n3c2c1)c1ccc(F)cc1 (stereo unspecified)
Result: -18.4

Request: Supply activity value. Item: COc1ccc(-c2[nH]ncc2CN2CC[C@H]3CC[C@@H](C2)N3)cc1
Result: 11.4

Request: Supply activity value. Item: COc1ccc(NC(=O)CCc2ccnc(N3CCCC3)c2)c(OC)c1
Result: -5.64

Request: Supply activity value. Item: COc1ccc(CNc2cc3c(cn2)CN(C)CCN3)cc1OC
Result: 6.61

---

target: Rap guanine nucleotide exchange factor 3 (Homo sapiens); assay: Counterscreen qHTS for agonist of cAMP-regulated guanine nucleotide exchange factor 3 (EPAC1) (AID 1645889); conditions: EPAC1 Rap1B-BODIPY-GDP exchange, fluorescence; series mostly up to 154 µM; also: % of control where 0% means no effect; nearly all actives have a fitted effect of over 40% in size
Records with an inconclusive call do not appear. Active and inactive are the calls of the source. Calls come from the whole dose curve; as a rule, active = well fitted activation curve with a large enough effect; inconclusive = small, poorly fitted or top-dose-only effect, or another doubt; inactive = no such curve, though single readings can be large or run the other way.
RESULT TYPE: activation

Reference set (5 entries):
INSERT INTO results (compound, value_observed) VALUES
  ('O=C(NCc1ccc(OC(F)(F)F)cc1)c1cccc2c1C(=O)c1ccc(N3CCCC3)cc1S2(=O)=O', '20% [at 30.8 µM] (inactive)'),
  ('Cc1nn(CCc2nn[nH]n2)c2nc(-c3ccc(Br)cc3)cc(C(F)(F)F)c12', 'inactive'),
  ('c1ccc(C(c2ccccc2)c2ccn[nH]2)cc1', '11.3% [at 30.8 µM] (inactive)'),
  ('Cn1cc(C(=O)C(=O)N2CCCCC2)c2ccccc21', 'inactive'),
  ('Cc1ccc(Cl)cc1N1CCN(C(=O)c2cccc3c(=O)c(C)c(-c4ccccc4)oc23)CC1', '25.9% [at 30.8 µM] (inactive)');

Request: Supply activation value. Item: O=C(O)CCCC(=O)N1CCN(c2nc(-c3ccccc3Cl)c3cc(Br)ccc3n2)CC1
Result: inactive

Request: Supply activation value. Item: CC(C)COc1ccc(C(=O)Nc2cc(-c3ccccc3)no2)cc1
Result: inactive
